Target: human serotonin 5-HT2c receptor (Homo sapiens, UniProt P28335)
Construct: expressed in transfected cells; host or cells: CHO cells (membrane homogenate)
Sequence (P28335 33-458): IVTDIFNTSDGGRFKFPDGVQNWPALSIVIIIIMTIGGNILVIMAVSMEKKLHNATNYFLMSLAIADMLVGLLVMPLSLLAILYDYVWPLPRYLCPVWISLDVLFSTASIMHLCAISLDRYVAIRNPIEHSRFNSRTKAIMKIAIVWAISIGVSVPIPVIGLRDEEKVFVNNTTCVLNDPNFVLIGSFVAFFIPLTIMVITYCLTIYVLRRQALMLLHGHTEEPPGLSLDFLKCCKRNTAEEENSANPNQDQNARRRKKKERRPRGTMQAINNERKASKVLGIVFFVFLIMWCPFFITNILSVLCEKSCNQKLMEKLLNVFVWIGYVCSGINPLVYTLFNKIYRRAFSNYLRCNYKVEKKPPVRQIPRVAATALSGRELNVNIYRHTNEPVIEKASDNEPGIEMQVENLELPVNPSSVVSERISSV
Experiment: Human 5-HT2C receptor radioligand binding assay (agonist site, [125I](±)DOI)
Details: membranes of transfected CHO cells, 0.2 nM [125I](±)DOI, 15 minutes at 37° C.
Readout Type: Ki

Below, 4 compounds whose answers are already recorded.
Compound: O=C1CC2CNCCN2c2cc(/C=C/c3ccc(F)cc3)ccc2N1 (centres unmarked)
System Under Test: human serotonin 5-HT2c receptor (Homo sapiens, UniProt P28335)
Ki: 0.032 µM
--
Compound: O=C1CC2CNCCN2c2ccc(F)cc2N1 (centres unmarked)
System Under Test: human serotonin 5-HT2c receptor (Homo sapiens, UniProt P28335)
Ki: 0.19 µM
--
Compound: O=C1CC2CN(Cc3ccccc3)CCN2c2cc(Cl)ccc2N1 (centres unmarked)
System Under Test: human serotonin 5-HT2c receptor (Homo sapiens, UniProt P28335)
Ki: 0.36 µM
--
Compound: Clc1ccccc1CN1CCC2CNCCN2c2ccccc21 (centres unmarked)
System Under Test: human serotonin 5-HT2c receptor (Homo sapiens, UniProt P28335)
Ki: 0.097 µM

Below: the item to evaluate.
Input: Need Ki, item Clc1cc2c(cc1Cl)N1CCNCC1CCN2 (centres unmarked)
Output: 0.004 µM
